Documented log10 IC50 across a set of compounds
- Tested on: RT-112
- Measurement description: Cellular Proliferation Assay (Cell Counting Kit-8), RT-112
- Type: cell-based
- Experimental setup: Homo sapiens, RT-112 cells, 72 hours
Measured parameter: log10 IC50 (log10 of the value in nM)

Structure string	log10 IC50
CCn1ncc(Nc2ncc(CCc3cc(C(=O)NC)cc(OC)c3F)cn2)c1C	2.29
CNC(=O)c1cc(CCc2cnc(Nc3ccnc(C)c3)nc2)c(F)c(OC)c1	2.14
CONC(=O)c1cc(CCc2cnc(Nc3ccccc3)nc2)cc(OC)c1	1.92
CNC(=O)c1cc(COc2cnc(Nc3ccc(N4C[C@@H](C)N[C@@H](C)C4)c(F)c3)nc2)c(F)c(OC)c1	1.40
CNC(=O)c1cc(CCc2cnc(Nc3ccc(CN4CCOCC4)cn3)nc2)c(F)c(OC)c1	2.92
CNC(=O)c1cc(CCc2cnc(Nc3cnn(C(F)F)c3)nc2)c(F)c(OC)c1	1.28
CNC(=O)c1cc(CCc2cnc(Nc3cnn(C4CCOCC4)c3)nc2)c(F)c(OC)c1	1.77
CCN1CC(n2cc(Nc3ncc(CCc4cc(C(=O)NC)cc(OC)c4F)cn3)cn2)C1	2.58
CNC(=O)c1cc(CCc2cnc(Nc3cnn(C)c3)nc2)c(Cl)c(OC)c1	2.15
CCN(CC)CCCn1cc(Nc2ncc(CCc3cc(C(=O)NC)cc(OC)c3Cl)cn2)cn1	1.43
CNC(=O)c1cc(CCc2cnc(Nc3cnn(C4CCC4)c3)nc2)c(F)c(OC)c1	1.46
CNC(=O)c1cc(COc2cnc(Nc3ccc(N4C[C@@H](C)N[C@@H](C)C4)cc3)nc2)c(F)c(OC)c1	1.15
CNC(=O)c1cc(CCc2ccc(Nc3cnn(C)c3)nc2)c(F)c(OC)c1	2.82
CONC(=O)c1cc(CCc2cnc(Nc3cnn(CCO)c3)nc2)cc(OC)c1	2.75
CCn1cc(Nc2ncc(CCc3c(F)c(C(=O)NC)cc(OC)c3Cl)cn2)cn1	1.38
CONC(=O)c1cc(COc2cnc(Nc3cnn(C)c3)nc2)c(Cl)c(OC)c1	0.70
CNC(=O)c1cc(COc2cnc(Nc3ccc(N4C[C@@H](C)N[C@@H](C)C4)cc3)nc2)c(Cl)c(OC)c1	0.85
CNC(=O)c1cc(CCc2cnc(Nc3cnn(C)c3C)nc2)c(F)c(OC)c1	2.63
CNC(=O)c1cc(CCc2cnc(Nc3cnn(CC4CCN(C)CC4)c3)nc2)c(Cl)c(OC)c1	1.32
CCN1CCN(c2ccc(Nc3ncc(CCc4cc(C(=O)NC)cc(OC)c4F)cn3)cc2)C[C@H]1C	1.69

====

Overview of recorded IC50 for various molecules
- Assay target: Recombinant human FGFR1 (Homo sapiens, UniProt P11362)
- Sequence (P11362 22-822): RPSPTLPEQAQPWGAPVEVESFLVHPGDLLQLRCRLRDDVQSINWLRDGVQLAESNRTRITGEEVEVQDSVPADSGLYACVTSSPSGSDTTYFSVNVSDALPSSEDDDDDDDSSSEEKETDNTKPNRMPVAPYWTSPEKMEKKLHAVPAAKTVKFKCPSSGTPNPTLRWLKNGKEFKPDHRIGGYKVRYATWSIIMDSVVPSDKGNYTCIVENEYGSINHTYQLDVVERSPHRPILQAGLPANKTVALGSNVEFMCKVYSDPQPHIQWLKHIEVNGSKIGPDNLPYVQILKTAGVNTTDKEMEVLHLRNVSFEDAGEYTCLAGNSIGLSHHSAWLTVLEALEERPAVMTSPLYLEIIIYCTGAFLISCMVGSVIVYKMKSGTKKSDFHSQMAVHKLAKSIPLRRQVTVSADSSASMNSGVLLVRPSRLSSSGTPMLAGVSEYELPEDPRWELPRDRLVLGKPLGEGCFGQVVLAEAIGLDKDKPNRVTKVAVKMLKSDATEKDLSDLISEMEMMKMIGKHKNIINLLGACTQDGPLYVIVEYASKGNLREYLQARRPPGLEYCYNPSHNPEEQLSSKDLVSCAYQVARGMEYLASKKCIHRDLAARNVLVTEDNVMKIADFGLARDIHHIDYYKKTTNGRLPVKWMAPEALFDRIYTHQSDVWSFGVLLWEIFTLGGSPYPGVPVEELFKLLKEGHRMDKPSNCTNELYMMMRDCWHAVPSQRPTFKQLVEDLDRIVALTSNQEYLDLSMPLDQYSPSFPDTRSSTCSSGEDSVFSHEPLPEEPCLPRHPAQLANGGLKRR
- Measurement description: Transcreener Kinase Assay of FGFR1
- Assay type: biochemical
- Experimental setup: read-out: FGFR1 (FP) IC50

Structure string	IC50 (µM)
CCN1CCN(c2ccc(Nc3ncc(CCc4cc(OC)cc(C(=O)NC)c4)cn3)cc2)CC1	0.024
CCN1CCC[C@@H](n2cc(Nc3ncc(CCc4cc(C(=O)NC)cc(OC)c4F)cn3)cn2)C1	0.01
CNC(=O)c1cc(CCc2cnc(Nc3cnn(CCN4CCN(C)CC4)c3)nc2)c(Cl)c(OC)c1	0.012
CNC(=O)c1cc(CCc2cnc(Nc3ccnc(C)c3)nc2)c(F)c(OC)c1	0.016
CNC(=O)c1cc(CCc2cnc(Nc3ccn(C)c(=O)c3)nc2)c(F)c(OC)c1	0.018
CNC(=O)c1cc(COc2cnc(Nc3ccc(O)cc3)nc2)c(F)c(OC)c1	0.018
CCN1CCN(c2ccc(Nc3ncc(/C=C/c4cc(OC)cc(C(=O)NOC)c4)cn3)cc2)CC1	0.012
CNC(=O)c1cc(CCc2cnc(Nc3cnn(C)c3)nc2)c(Cl)c(OC)c1	0.012
CCN1CCN(c2cc(Nc3ncc(CCc4cc(OC)cc(C(=O)NOC)c4)cn3)ccn2)CC1	0.005
CCn1cc(Nc2ccc(OCc3cc(C(=O)NC)cc(OC)c3F)cn2)cn1	0.271
